Tested on: A549
Assay: Inhibition of A549 cell migration by microdroplet migration assay
Type: functional, cell-based
Conditions: Homo sapiens
measure.name: IC50

Some solved cases for reference:
                                  structure  target_or_system  endpoint_result
0  COc1ccc(Cl)c(Nc2ncnc3cc(OCC4CCN(C)CC4)c(OC)cc23)c1              A549           480 nM
1  CN1CCC(Oc2cc(OCCF)cc3ncnc(Nc4c(Cl)ccc5c4OCO5)c23)CC1              A549            90 nM
2  COc1ccc(Cl)c(Nc2ncnc3cc(OCCCN4CCOCC4)cc(OC4CCCCC4)c23)c1              A549          2500 nM

Q. Can you look up the measured IC50 of Clc1ccc2c(c1Nc1ncnc3cc(OCCCN4CCCC4)cc(OC4CCOCC4)c13)OCO2 for me?
A. 150 nM

Q. Next entry: CC(C)Oc1cc(OCCN2CCOCC2)cc2ncnc(Nc3c(Cl)ccc4c3OCO4)c12
A. 100 nM

Q. Lookup CN1CCN(CCOc2cc(OC3CCOCC3)c3c(Nc4c(Cl)ccc5c4OCO5)ncnc3c2)CC1
A. 140 nM

Q. Now try COc1ccc(Cl)c(Nc2ncnc3cc(OC)cc(OC4CCN(C)CC4)c23)c1 .
A. 300 nM

Q. What do you get for CC(C)Oc1cc(OCCCN2CCCC2)cc2ncnc(Nc3c(Cl)ccc4c3OCO4)c12 ?
A. 150 nM

Q. Then this compound: CC(C)COc1cc(OC2CCN(C)CC2)c2c(Nc3c(Cl)ccc4c3OCO4)ncnc2c1
A. 200 nM

---

Experiment: AUC (0-24h) in mouse at 20 mg/kg, po
Format: ADME, organism-based
Set-up: time < 24 hr, dose 20 mg/kg, route oral
Settings: plasma
Label Condition met when AUC(0-t) at 24 h is strictly below 6 µg·h/mL; at or above that, label Condition not met.

Please review the following examples before continuing.
>>> print(df.to_string())
                                   compound     assigned_class
0  COc1cc2c(Nc3c(Cl)ccc4c3OCO4)ncnc2cc1OCC1CCN(C)CC1  Condition not met
1  CC(C)COc1cc(OC2CCN(C)CC2)c2c(Nc3c(Cl)ccc4c3OCO4)ncnc2c1      Condition met
2  CN1CCC(COc2cc(OC3CCOCC3)c3c(Nc4c(Cl)ccc5c4OCO5)ncnc3c2)CC1  Condition not met
3  COc1cc2c(Nc3c(Cl)ccc4c3OCO4)ncnc2cc1OCCCN1CCCC1  Condition not met
4  CN1CCN(CCOc2cc(OC3CCOCC3)c3c(Nc4c(Cl)ccc5c4OCO5)ncnc3c2)CC1 [SARACATINIB]  Condition not met
5  Clc1ccc2c(c1Nc1ncnc3cc(OCCN4CCCC4)cc(OC4CCOCC4)c13)OCO2  Condition not met
6  COc1cc(OC2CCN(C)CC2)c2c(Nc3c(Cl)ccc4c3OCO4)ncnc2c1      Condition met
7  Clc1ccc2c(c1Nc1ncnc3cc(OCCCN4CCCC4)cc(OC4CCOCC4)c13)OCO2  Condition not met

Switching to the query record.
Q. Consider COc1cc(Oc2ccncc2)c2c(Nc3c(Cl)ccc4c3OCO4)ncnc2c1 . Does its AUC(0-t) at 24 h lie strictly below 6 µg·h/mL?
A. Condition met
